# assay system: wild type human RORγt LBD (Homo sapiens)
# Construct: expressed in transfected cells; host or cells: HEK293T
# Sequence (P51449 258-518): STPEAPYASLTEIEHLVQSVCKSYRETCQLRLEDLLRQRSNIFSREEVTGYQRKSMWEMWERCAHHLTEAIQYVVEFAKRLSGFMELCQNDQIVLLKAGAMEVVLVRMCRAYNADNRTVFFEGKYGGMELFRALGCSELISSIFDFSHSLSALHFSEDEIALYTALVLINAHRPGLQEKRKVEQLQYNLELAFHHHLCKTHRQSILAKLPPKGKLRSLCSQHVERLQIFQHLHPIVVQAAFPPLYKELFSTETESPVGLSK
# protocol: RORγt (LBD) Reporter Assay (GAL4-luciferase, HEK293T cells)
# Format: cell-based
# reported conditions: HEK293T cells
quantity measured: pIC50
FYI, pIC50 means -log10 of a concentration in mol per litre.

Cc1ccc(C(O)(c2ccc3nc(Cl)c(Cc4ccc(C(F)(F)F)cc4)c(Cl)c3c2)c2cnnn2C)c(C)n1 (stereo not drawn) :: 7.70
Cn1cncc1C(O)(c1ccc(C(F)(F)F)nc1)c1ccc2nc(N3CC(O)C3)c(Cc3ccc(-n4cccn4)cc3)c(Cl)c2c1 (single isomer, unassigned) [Example 134c] :: 5.96
COc1nc2ccc(C(O)(c3ncccn3)c3cncn3C)cc2c(Cl)c1Cc1ccc(-n2cccn2)cc1 (single isomer, unassigned) [Example 131c] :: 5.80
COc1nc2ccc(C(O)(c3ccc(F)cc3)c3cncn3C)cc2c(Cl)c1Cc1ccc(-n2cccn2)cc1 (stereo not drawn) [Example 160a] :: 7.23

Challenge: # query: pIC50 | item Cn1cncc1C(O)(c1ccc(Cl)cc1)c1ccc2nc(N3CCC3)c(Cc3ccc(-n4cccn4)cc3)c(Cl)c2c1 (stereo not drawn) [Example 138a] | system: wild type human RORγt LBD (Homo sapiens)
Response given: 6.89

---

# assay system: wild type human RORγt LBD (Homo sapiens, UniProt P51449)
# Construct: expressed in transfected cells; host or cells: HEK293T
# protocol: RORγt (LBD) Reporter Assay (GAL4-luciferase, HEK293T cells)
# Format: cell-based
# reported conditions: HEK293T cells; value after the comma with ∼, > or < could not be included in the average
pIC50: −log10 of the molar value.
Lab note: compare pIC50 against 7. Equal or greater, write met. Smaller, write not met.

Examples with answers:
COc1nc2ccc(C(O)(c3ccc(C)nc3C)c3cnnn3C)cc2c(Cl)c1Cc1ccc(N(C)C)cc1 (single isomer, unassigned) [Example 24c] :: met
Cn1cncc1C(O)(c1ccc(Cl)cc1)c1ccc2nc(C(F)(F)F)c(Cc3ccccc3)c(C#N)c2c1 (stereo not shown) [Example 103] :: met
Cn1cncc1C(O)(c1ccc(C(F)(F)F)nc1)c1ccc2nc(C(F)(F)F)c(Cc3ccccc3)c(C#N)c2c1 (single isomer, unassigned) [Example 108b] :: not met
COc1nc2ccc(C(O)(c3ccc(C)nc3C)c3cnnn3C)cc2c(C#N)c1Cc1ccc(C(F)(F)F)nc1 (single isomer, unassigned) [Example 41b] :: not met
COc1nc2ccc(C(O)(c3ccccc3)C3CCN(C(C)=O)CC3)cc2c(Cl)c1Cc1ccc(C(F)(F)F)cc1 (single isomer, unassigned) [Example 69b] :: met

Challenge: hey, is pIC50 for this one >= 7? Cn1cncc1C(O)(c1ccc(C(F)(F)F)nc1)c1ccc2nc(C(F)(F)F)c(Cc3ccccc3)c(O)c2c1 (stereo not shown) [Example 107]
Response given: not met

Challenge: hey, is pIC50 for this one >= 7? COc1nc2ccc(C(O)(c3ccc(C)nc3C)c3cnnn3C)cc2c(C#N)c1Cc1ccc(C(F)(F)F)nc1 (single isomer, unassigned) [Example 41c]
Response given: met

Challenge: hey, is pIC50 for this one >= 7? COc1nc2ccc(C(O)(c3cnnn3C)C3CCN(C(C)=O)CC3)cc2c(Cl)c1Cc1ccc(C(F)(F)F)cc1 (single isomer, unassigned) [Example 74b]
Response given: met

Challenge: hey, is pIC50 for this one >= 7? COc1c(Cc2ccccc2)c(C(F)(F)F)nc2ccc(C(O)(c3ccccn3)c3cncn3C)cc12 (racemic) [Example 98a]
Response given: not met

Challenge: hey, is pIC50 for this one >= 7? Cn1cncc1C(O)(c1ccc2nc(C(F)(F)F)c(Cc3ccccc3)c(Cl)c2c1)c1ccccn1 (stereo not shown) [Example 97]
Response given: not met
